systemTested: human MSR1 extracellular domain expressed with a N-terminal nonahistidine tag (His9-hMSR1; R&D Systems, Cat #2708-MS) (human) (UniProt P21757)
Sequence (P21757 other isoform, or with tags, fused parts or gaps): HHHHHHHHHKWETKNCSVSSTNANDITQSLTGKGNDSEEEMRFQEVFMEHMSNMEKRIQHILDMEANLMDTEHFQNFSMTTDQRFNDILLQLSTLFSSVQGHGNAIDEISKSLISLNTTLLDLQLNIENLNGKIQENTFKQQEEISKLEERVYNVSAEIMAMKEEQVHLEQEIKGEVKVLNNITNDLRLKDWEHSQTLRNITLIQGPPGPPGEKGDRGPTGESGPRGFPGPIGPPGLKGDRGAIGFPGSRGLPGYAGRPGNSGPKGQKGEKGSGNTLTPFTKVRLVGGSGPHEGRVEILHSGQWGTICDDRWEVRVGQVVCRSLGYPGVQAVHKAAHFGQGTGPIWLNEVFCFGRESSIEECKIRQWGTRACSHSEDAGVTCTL
protocolNotes: competition ELISA; 500 nM antibody, competitor 10 nM Ox-LDL, plate-coated His9-hMSR1
reportedMetric: % Blocking (%)

>>> valueobserved("H1H21234N (antibody, human IgG1, V domains shown) VH: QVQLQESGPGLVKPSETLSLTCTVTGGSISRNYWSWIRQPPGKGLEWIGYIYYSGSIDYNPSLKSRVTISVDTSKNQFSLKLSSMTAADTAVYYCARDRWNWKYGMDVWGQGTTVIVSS VL: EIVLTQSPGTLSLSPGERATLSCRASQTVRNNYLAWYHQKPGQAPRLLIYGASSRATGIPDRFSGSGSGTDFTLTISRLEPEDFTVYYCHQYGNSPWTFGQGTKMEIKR")
98
>>> valueobserved("H1H21227N-N297Q (antibody, human IgG1, V domains shown) VH: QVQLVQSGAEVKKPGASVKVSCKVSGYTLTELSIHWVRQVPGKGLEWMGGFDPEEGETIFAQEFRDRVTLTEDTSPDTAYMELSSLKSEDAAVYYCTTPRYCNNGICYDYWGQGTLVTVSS VL: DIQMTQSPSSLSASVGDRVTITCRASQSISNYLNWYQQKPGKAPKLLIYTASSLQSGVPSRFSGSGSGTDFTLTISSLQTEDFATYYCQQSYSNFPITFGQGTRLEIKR")
97
>>> valueobserved("H1H21227N (antibody, human IgG1, V domains shown) VH: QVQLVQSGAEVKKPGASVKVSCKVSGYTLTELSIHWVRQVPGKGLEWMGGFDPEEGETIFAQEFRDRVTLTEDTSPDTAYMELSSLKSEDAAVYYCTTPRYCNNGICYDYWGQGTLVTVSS VL: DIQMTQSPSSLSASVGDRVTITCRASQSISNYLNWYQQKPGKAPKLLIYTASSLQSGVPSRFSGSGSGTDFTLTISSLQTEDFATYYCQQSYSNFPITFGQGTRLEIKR")
100
>>> valueobserved("H2aM25695N (antibody, mouse IgG2a, V domains shown) VH: QVQLQESGPGLVKPSETLSLTCTVTGGSISRNYWSWIRQPPGKGLEWIGYIYYSGSINYNPSLKSRVTISVDMSKNQFSLKLNSVTAADTAVYYCARDRWNWKYGMDVWGQGTTVIVSS VL: EIVLTQSPGTLSLSPGERATLSCRASQTVRNSYLAWYHQKPGQAPRLLIYGASSRATGIPDRFSGSGSGTDFTLTISRLEPEDFAVYYCQQYGSSYWTFGQGTKMEIKR")
96
>>> valueobserved("H1H21234N-N297Q (antibody, human IgG1, V domains shown) VH: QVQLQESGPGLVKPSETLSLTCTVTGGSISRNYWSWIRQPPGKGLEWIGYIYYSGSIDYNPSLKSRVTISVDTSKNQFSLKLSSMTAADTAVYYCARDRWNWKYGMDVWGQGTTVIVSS VL: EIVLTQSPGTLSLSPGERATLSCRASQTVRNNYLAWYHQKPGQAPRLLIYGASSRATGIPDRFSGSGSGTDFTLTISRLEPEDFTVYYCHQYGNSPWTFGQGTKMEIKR")
49

# credit: patent US20230285581A1
